target: α1β3γ2L GABAARs (Homo sapiens, UniProt P14867+P18507+P28472); assay: Inhibition of [3H]R-mTFD-MPAB photolabeling
Sequence (P14867 28-456): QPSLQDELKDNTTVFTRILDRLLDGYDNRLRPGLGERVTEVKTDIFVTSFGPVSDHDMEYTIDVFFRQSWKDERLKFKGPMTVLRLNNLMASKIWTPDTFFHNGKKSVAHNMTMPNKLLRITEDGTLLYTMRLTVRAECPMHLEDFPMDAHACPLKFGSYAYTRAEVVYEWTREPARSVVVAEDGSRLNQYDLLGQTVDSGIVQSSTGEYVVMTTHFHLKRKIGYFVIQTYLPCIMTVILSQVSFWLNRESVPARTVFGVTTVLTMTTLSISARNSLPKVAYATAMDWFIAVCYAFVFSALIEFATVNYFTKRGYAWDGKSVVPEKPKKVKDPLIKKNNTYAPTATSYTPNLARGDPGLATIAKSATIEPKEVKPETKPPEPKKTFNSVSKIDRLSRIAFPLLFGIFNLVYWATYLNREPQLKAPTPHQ
Sequence (P28472 26-473): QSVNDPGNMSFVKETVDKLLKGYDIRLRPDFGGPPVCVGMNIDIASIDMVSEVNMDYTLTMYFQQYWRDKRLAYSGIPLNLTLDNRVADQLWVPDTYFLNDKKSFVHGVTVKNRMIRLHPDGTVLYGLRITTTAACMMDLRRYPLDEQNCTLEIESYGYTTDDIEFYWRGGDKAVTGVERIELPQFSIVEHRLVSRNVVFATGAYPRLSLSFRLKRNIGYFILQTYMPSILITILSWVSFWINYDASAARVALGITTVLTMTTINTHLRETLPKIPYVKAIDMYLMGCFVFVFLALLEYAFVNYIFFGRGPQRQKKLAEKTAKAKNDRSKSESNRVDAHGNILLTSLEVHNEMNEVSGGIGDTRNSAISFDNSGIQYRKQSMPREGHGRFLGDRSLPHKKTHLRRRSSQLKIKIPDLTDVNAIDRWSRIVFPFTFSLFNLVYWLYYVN
Sequence (P18507 40-475): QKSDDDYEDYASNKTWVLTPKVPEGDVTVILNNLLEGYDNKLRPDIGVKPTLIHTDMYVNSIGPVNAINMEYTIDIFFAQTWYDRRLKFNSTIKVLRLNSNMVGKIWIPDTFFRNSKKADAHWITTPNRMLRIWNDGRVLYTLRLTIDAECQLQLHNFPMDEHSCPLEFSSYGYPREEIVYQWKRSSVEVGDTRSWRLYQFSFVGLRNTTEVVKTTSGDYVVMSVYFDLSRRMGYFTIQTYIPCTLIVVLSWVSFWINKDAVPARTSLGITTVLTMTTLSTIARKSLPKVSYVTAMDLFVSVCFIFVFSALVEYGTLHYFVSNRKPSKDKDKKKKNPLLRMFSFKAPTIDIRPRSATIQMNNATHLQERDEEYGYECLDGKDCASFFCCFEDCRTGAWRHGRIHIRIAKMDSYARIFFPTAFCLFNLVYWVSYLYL
Readout: pIC50
Numbers only, as −log10 of the molar value.

Short answer for CC(C)c1cc(C2(C(F)(F)F)N=N2)cc(C(C)C)c1CO : pIC50 was 4.14
